test: physchem; conditions: water
Description: Solubility in water was determined; values expressed as -log
MEASURED_ATTRIBUTE: solubility (µM)

In [3]: df
Out[3]:
   query_smiles  result_unit  measured_value
0         CCCCC           µM             661
1      CCCCCCCC           µM            5.75
2    CCCCCCCCCC           µM           0.105

A = CCCCCCCCCCCCCCCC
B = CCCCCCCCCCCCCC
I'd appreciate it if you could identify which of A and B has the greater solubility. Kindly give the label for the entry you pick.
B

* * *

test: physchem; conditions: octanol/water
Description: Partition coefficient (logP)
MEASURED_ATTRIBUTE: logP

Here is how some molecules turned out for logP.
In [3]: df
Out[3]:
   query_smiles  measured_attribute  measured_value
0      CCCCCCCC                logP            5.15
1     CCCCCCCCC                logP            5.65
2    CCCCCCCCCC                logP            6.34

1 = CCCCCCC
2 = CCCCCCCCCCCCCC
Would you mind telling me which has the lower recorded logP between 1 and 2 ? Choose, then provide that item's label.
1
(1: 4.5, 2: 8)

* * *

settings: water/hexadecane
Description: Partition coefficient in water-hexadecane (P16) was determined
MEASURED_ATTRIBUTE: Log P16

P = CCCCCCC [HEPTANE]
Q = C [METHANE]
Pick the one with the larger Log P16: P vs Q Your choice should be expressed through its label.
P
(P: 5.14, Q: 1.14)

* * *

assay: physchem; conditions: buffer
MEASURED_ATTRIBUTE: solubility (µM)

>>> print(df.to_string())
             compound  measured_attribute  result_unit  measured_value
0  CCCCCCCCC [NONANE]          solubility           µM            1.32

1 = CCCCCCCCCCCC [DODECANE]
2 = CCCC [BUTANE]
Could you check which of 1 and 2 has a smaller value for solubility? Pick one; state its label.
1
(1: 0.0214 µM, 2: 2690 µM)

* * *

conditions: water/hexadecane
MEASURED_ATTRIBUTE: Log P16

   query_smiles  measured_value
0      CCCCCCCC            5.79
1         CCCCC            3.87
2    CCCCCCCCCC            7.01
3     CCCCCCCCC            6.49
